testDetails: NCI Yeast Anticancer Drug Screen. Data for the mlh1 rad18 strain (AID 175)
appliedConditions: S. cerevisiae mlh1 rad18 strain growth inhibition; at 50.0 µM
Compounds without any hit were thinned out: in the full panel of roughly 79,000, 15% have a hit. Active and inactive are the calls of the source. No stated cut-off is given here; in the data, active means growth inhibition above about 70%; inactive means the rest.
Outcome codes: 1 for active, -1 for inactive

{"molecule": "N#CC(C#N)=C1c2ccccc2Sc2ccccc21", "classLabel": -1}
{"molecule": "CN(C)c1ccc(C=C2C(=O)CC(C)(C)CC2=O)cc1", "classLabel": -1}
{"molecule": "COc1ccc(CC2c3cc(OC)c(OC)cc3CCN2C(=O)c2ccccc2)cc1OC (centres undefined)", "classLabel": -1}
{"molecule": "COc1cc(OC)c(-c2cc(C(=O)O)c3cc4ccccc4cc3n2)c(OC)c1", "classLabel": -1}
{"molecule": "Cc1cn(C2CC(O)C(CO)O2)c(=O)[nH]c1=S (centres undefined)", "classLabel": -1}
{"molecule": "Cc1cc(C)c(NC(=O)NC2CCCCC2)cc1C", "classLabel": -1}
{"molecule": "Cc1cc(C)c(NS(=O)(=O)c2ccc(Cl)cc2)cc1C", "classLabel": 1}
{"molecule": "CCc1cc(C(C)(C)C)cc(C(C)(C)C)c1O", "classLabel": -1}
{"molecule": "C/C(=N/NC(N)=O)c1c(C)c(Cl)cc(Cl)c1OCCCC(C)C", "classLabel": -1}
{"molecule": "COC(=O)N1C(c2ccccc2)(c2ccccc2)CS1(=O)=O", "classLabel": -1}
{"molecule": "COC(=O)C(CCC1(C)OCCO1)=[N+]=[N-]", "classLabel": -1}
{"molecule": "CCC[N+]1([O-])CCOCC1", "classLabel": -1}
{"molecule": "CCCCC1C2C(S(=O)(=O)c3ccccc3)=NOC2C=CN1C(C)=O (centres undefined)", "classLabel": -1}
{"molecule": "CCOc1ccc(NC(=O)CCc2nnc(SC)o2)cc1", "classLabel": -1}
{"molecule": "COc1ccc(C(O)Cc2cc(=O)cc(-c3ccccc3)[nH]2)cc1 (centres undefined)", "classLabel": -1}
{"molecule": "C[C@]12C(=O)OC[C@H](c3ccccc3)N1C(=O)N(Cc1ccccc1)[C@@H]2CO", "classLabel": -1}
{"molecule": "O=C1N2Cc3c4ccc5c3CN3C(=O)N6Cc7c(ccc(c7CN1C6(c1ccccc1)C23c1ccccc1)OCCOCCOc1cc(Br)c(Br)cc1OCCOCCO4)OCCOCCOc1cc(Br)c(Br)cc1OCCOCCO5 (centres undefined)", "classLabel": -1}
{"molecule": "Cn1nc(-c2ccccc2)c(C(=O)/C=C/c2ccc(F)cc2)c(N2CCOCC2)c1=O", "classLabel": -1}
{"molecule": "N#C/C(N)=C(\\C#N)N=CN", "classLabel": -1}
{"molecule": "CC1NC(=O)OC1C(C)(C)C (centres undefined)", "classLabel": -1}
{"molecule": "CS(=O)(=O)CCCCCCCCCCC(=O)O", "classLabel": -1}
{"molecule": "COC(=O)C(CC1=C(O)Nc2ccccc2N1)/C(=N/NC(N)=O)C(=O)Nc1ccccc1C (centres undefined)", "classLabel": -1}
{"molecule": "C[n+]1c(-c2ccc(/C=N/NC(=O)C(=O)N/N=C/c3ccc(-c4cn5ccsc5[n+]4C)cc3)cc2)cn2ccsc21", "classLabel": 1}
{"molecule": "Oc1ccccc1CNCc1nc2ccccc2[nH]1", "classLabel": -1}
{"molecule": "Cc1cc(C(N)=O)c(C(N)=O)c(Cl)n1", "classLabel": -1}
{"molecule": "COC(=O)C1=C(C)NC(C)=C(C(=O)OC)C1c1cccc(N=O)c1", "classLabel": 1}
{"molecule": "COc1ccc2c(c1)c(=O)c1c(NCCCN(C)C)ccc3ncn2c31", "classLabel": -1}
{"molecule": "CCOC(=O)c1ccc(NC(=O)Sc2ccccc2C)cc1", "classLabel": -1}
{"molecule": "NC(Cc1cccc([N+](=O)[O-])c1)C(=O)O (centres undefined)", "classLabel": -1}
{"molecule": "CC(=O)CC(=O)Nc1ccc(Cc2ccc(Br)cc2)cc1", "classLabel": -1}
{"molecule": "CC(=O)c1cccc(NC(=O)Nc2cccc3ccccc23)c1", "classLabel": -1}
{"molecule": "c1ccc(-c2coc(-c3ccccc3)c2)cc1", "classLabel": -1}
{"molecule": "O=C(O)/C=C(\\Br)C(=O)O", "classLabel": -1}
{"molecule": "CCCC(CCc1ccccc1)C(=O)NC(N)=O (centres undefined)", "classLabel": -1}
{"molecule": "C=C(C)[N+]([O-])=NC", "classLabel": -1}
{"molecule": "Clc1cccc(-c2nnc(-c3nn(-c4ccccc4)c4nc5ccccc5nc34)o2)c1", "classLabel": -1}
{"molecule": "NC(=S)NNC(=O)CCC(=O)Nc1ccccc1Cl", "classLabel": -1}
{"molecule": "O=C1OC(c2cccc(Cl)c2)=N/C1=C\\c1ccc(Cl)cc1", "classLabel": -1}
{"molecule": "N#Cc1ccc(CCc2ccc(Cl)cc2)cc1", "classLabel": -1}
{"molecule": "CC1=Nc2ccccc2N2C1=CC1=C(C(=O)c3cc4ccccc4cc3C1=O)C2C (centres undefined)", "classLabel": -1}
{"molecule": "OCc1ccccc1CO", "classLabel": -1}
{"molecule": "CCOC(=O)/C(O)=C/c1cc(=O)n(C)c2ccccc12", "classLabel": -1}
{"molecule": "Cc1c(O)ccc(N=O)c1O", "classLabel": -1}
{"molecule": "CCNC(=O)C(C(=O)OC)c1ccccc1 (centres undefined)", "classLabel": -1}
{"molecule": "CC(=O)CC(=O)CCC(=O)O", "classLabel": -1}
{"molecule": "N#CCCn1ncc(C#N)c1N", "classLabel": -1}
{"molecule": "O=C1CCCC(=O)N1CCCO", "classLabel": -1}
{"molecule": "CC1(C)CC(C(N)=O)C(C)(C)N1O (centres undefined)", "classLabel": -1}
{"molecule": "O=C(c1ccccc1)n1c2ccccc2c2ccccc21", "classLabel": -1}
